B1: OR4K15 (parent)
chain: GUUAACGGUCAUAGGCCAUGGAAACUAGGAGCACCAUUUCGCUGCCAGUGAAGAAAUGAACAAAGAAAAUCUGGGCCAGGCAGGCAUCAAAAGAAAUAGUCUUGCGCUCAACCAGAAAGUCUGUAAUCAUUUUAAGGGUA

# Variants of: B1
# PROTOCOL SUMMARY: self-cleavage, relative activity (ratio to wild type); higher = more cleavage; in vitro, sequencing; the parent is a self-cleaving ribozyme
Our labelling divides records by self-cleavage into ranges: label 0 = under 0.5, label 1 = from 0.5 up to 1, label 2 = 1 and over

Worked examples follow.
1. GUUAACGGUCAUAGGCCAUGGAAACUAGGAGCACCAUUUCGCUGCCAGUGAAGAAAUGAACAAAGAGAAUCUGGGCCAGGCAGGCAUCAAAAGAAAUAGUCUUACGCUCAACCAGAAAGUCUGUAAUCAUUUUAAGGGUA: label 0
2. GUUAACGGUCAUAGGCCAUGGAAACUAGGAGCACCAUUUCGCUGCCAGUGAAGAAAUGAACAAAGAAAAUCUGGGCCAGGCAGGCAUCAAAAGAAAUAGUCUUGCGCUCAACCUGAAAGUCUGUAACCAUUUUAAGGGUA: label 0
3. GUUAACGGUCAUAGGCCAUGGAAACUAGGAGCACCAUUUCGCUGCCAGUGAAGAAAUGAACAAAGAAAAUCGGGGCCAGGCAGGCAUCAAAAGAAAUAGUCAUGCGCUCAACCAGAAAGUCUGUAAUCAUUUUAAGGGUA: label 0
4. GUUAACGGUCAUAGGCCAUGGAAACUAGGAGCACCAUUUCGCUGCCAGUGAAGAAAUGAACAAAGAAAAUCUGGGCCAGGCAGGCAUCGAAAGAAAUAGUCUUGCGCCCAACCAGAAAGUCUGUAAUCAUUUUAAGGGUA: label 0
5. GUCAACGGUCAUAGGCCAUGGAAACUAGGAGCACCAUUUCGCUGCCAGUGAAGAAAUGAACAAAGAAAAUCUGGGCCAGGCAGGCAUCAAAAGAAAUAGUCUUGCGCUCAACCAGGAAGUCUGUAAUCAUUUUAAGGGUA: label 1
6. GUGACCGGUCAUAGGCCAUGGAAACUAGGAGCACCAUUUCGCUGCCAGUGAAGAAAUGAACAAAGAAAAUCUGGGCCAGGCAGGCAUCAAAAGAAAUAGUCUUGCGCUCAACCAGAAAGUCUGUAAUCAUUUUAAGGGUA: label 2
7. GUUAACGGUCAUAGGCCAUGGAAACUAGGAGCACCAUUUCGCUGCCAGUGAAGAAAUGAACAAAGAAAAUCUGGGCCAGGCAGGCAUCAAAAGAAAUAGUCUUGCGCUCAACCUGAAAGUCUGUAAUCAUUAUAAGGGUA: label 0
8. GUUAACGGUCAUAGGCCAUGGAAACUAGGAGCACCAUUUCGCUGCCAGUGAAGAAAUGAACAAAGAAAAUCUGGGCCUGGCAGGCAUCAAAAGAAAUAGUCUUGCGCUCCACCAGAAAGUCUGUAAUCAUUUUAAGGGUA: label 0
9. GUUAACGGUCAUAGGCCAUGGAAGCUAGGAGCACCAUUUCGCUGCCAGUGAAGAAAUGAACAAAGAAAAUCUAGGCCAGGCAGGCAUCAAAAGAAAUAGUCUUGCGCUCAACCAGAAAGUCUGUAAUCAUUUUAAGGGUA: label 0
10. GUUAACGGUCAUAGGCCAUGGAAACUAGGAGCACCAUUUCGCUGCCAGUGAAGAAAUGAACAAAGAAAAUCAGGGCCUGGCAGGCAUCAAAAGAAAUAGUCUUGCGCUCAACCAGAAAGUCUGUAAUCAUUUUAAGGGUA: label 0

query: Please let me know in which category the item GUUAACGGCCAUUGGCCAUGGAAACUAGGAGCACCAUUUCGCUGCCAGUGAAGAAAUGAACAAAGAAAAUCUGGGCCAGGCAGGCAUCAAAAGAAAUAGUCUUGCGCUCAACCAGAAAGUCUGUAAUCAUUUUAAGGGUA belongs.
result: label 2

query: Please let me know in which category the item GUUGACGGUCAUAGGCCAUGGAAACUAGGAGCACCAUUUCGCUGCCAGUGAAGAAAUGAACAAAGAAAAUCUGGGCCAGGCAGGCAUCAAAAGAAAUAGUCUCGCGCUCAACCAGAAAGUCUGUAAUCAUUUUAAGGGUA belongs.
result: label 2

query: Please let me know in which category the item GUUAACGGUCAUAGGCCAUGGAAACUAGGAGCACCAUUUCGCUGCCAGUGAAGAAAUGAACAAAGAAAAUCUGGGCCAGGCGGGCAUCAAAAGAAAUAGACUUGCGCUCAACCAGAAAGUCUGUAAUCAUUUUAAGGGUA belongs.
result: label 0

query: Please let me know in which category the item GUUAACGGACAUAGGCCAUGGAAACUAGGAGCACCAUUUCGCUGCCAGUGAAGAAAUGAACAAAGAAAAUCUGGGCCAGGCAGGCAUCAAAAGAAAUAGUCUUGCGCUCGACCAGAAAGUCUGUAAUCAUUUUAAGGGUA belongs.
result: label 0

query: Please let me know in which category the item GUUAACGGUCAUAGGCCAUGGAAACUAGGAGCACCAUUUCGCUGCCAGCGAAGAUAUGAACAAAGAAAAUCUGGGCCAGGCAGGCAUCAAAAGAAAUAGUCUUGCGCUCAACCAGAAAGUCUGUAAUCAUUUUAAGGGUA belongs.
result: label 2
